Could you please report measured H (Hill coefficient) for the items listed next?
tested target: homotetrameric CNGA2 channels (Rattus norvegicus, UniProt Q00195)
Construct: expressed in transfected cells; host or cells: Xenopus laevis oocytes injected with cRNA; inside-out patches
assay details: Concentration-activation relationship of homotetrameric CNGA2 channels, inside-out patches of Xenopus oocytes
Format: cell-based
recorded conditions: homotetrameric CNGA2 channels; mean
I'd appreciate a reply containing only the number, no unit.

input: Requested field: H (Hill coefficient). Item: CC(=O)NCC(=O)NCCSc1nc2c(=O)[nH]c(N)nc2n1C1OC2COP(=O)(O)OC2C1O (stereo not shown) [10G, 8-(Ac)AGET-cGMP]
output: 2.6

input: Requested field: H (Hill coefficient). Item: NCCSc1nc2c(N)ncnc2n1C1OC2COP(=O)(O)OC2C1O (stereo not shown)
output: 1.8

input: Requested field: H (Hill coefficient). Item: CC(=O)NCCOCCOCCC(=O)NCCSc1nc2c(=O)[nH]c(N)nc2n1C1OC2COP(=O)(O)OC2C1O (stereo not shown)
output: 2.3

input: Requested field: H (Hill coefficient). Item: NCCCCCCCCCCSc1nc2c(=O)[nH]c(N)nc2n1C1OC2COP(=O)(O)OC2C1O (stereo not shown)
output: 1.8

---

tested target: homotetrameric CNGA2 channels (Rattus norvegicus)
Construct: expressed in transfected cells; host or cells: Xenopus laevis oocytes injected with cRNA; inside-out patches
assay details: Concentration-activation relationship of homotetrameric CNGA2 channels, inside-out patches of Xenopus oocytes
Assay type: cell-based
recorded conditions: homotetrameric CNGA2 channels; mean
Experimental: For each cNMP derivative a complete concentration-activation relationship was recorded, and the data points were fitted with the Hill equation (equation 1) yielding the concentration of half maximum activation (EC50) and the Hill coefficient H (Fig. 1b,c). […] Macroscopic currents were recorded from inside-out patches of the oocytes by using standard patch-clamp techniques. […]
outcome measure: H (Hill coefficient)

input: Requested field: H (Hill coefficient). Item: CC(=O)NCC(=O)NCC(=O)NCCSc1nc2c(=O)[nH]c(N)nc2n1C1OC2COP(=O)(O)OC2C1O (stereo not shown) [11G, 8-(Ac)AGGET-cGMP]
output: 2.4

input: Requested field: H (Hill coefficient). Item: CC(=O)NCC(=O)NCC(=O)NCCSc1nc2c(N)ncnc2n1C1OC2COP(=O)(O)OC2C1O (stereo not shown) [11A, 8-(Ac)AGGET-cAMP]
output: 1.9

input: Requested field: H (Hill coefficient). Item: CC(=O)NCCSc1nc2c(=O)[nH]c(N)nc2n1C1OC2COP(=O)(O)OC2C1O (stereo not shown)
output: 1.8

input: Requested field: H (Hill coefficient). Item: NCCCCCCSc1nc2c(N)ncnc2n1C1OC2COP(=O)(O)OC2C1O (stereo not shown)
output: 2.3

input: Requested field: H (Hill coefficient). Item: CC(=O)NCCOCCOCCC(=O)NCCSc1nc2c(N)ncnc2n1C1OC2COP(=O)(O)OC2C1O (stereo not shown)
output: 2.3

input: Requested field: H (Hill coefficient). Item: NCCSc1nc2c(=O)[nH]c(N)nc2n1C1OC2COP(=O)(O)OC2C1O (stereo not shown)
output: 2.4

input: Requested field: H (Hill coefficient). Item: CC(=O)NCCCCCCSc1nc2c(N)ncnc2n1C1OC2COP(=O)(O)OC2C1O (stereo not shown)
output: 3.1

---

Could you please report measured log10(EC50) for the items listed next?
tested target: homotetrameric CNGA2 channels (Rattus norvegicus, UniProt Q00195)
Construct: expressed in transfected cells; host or cells: Xenopus laevis oocytes injected with cRNA; inside-out patches
Sequence (Q00195 1-664): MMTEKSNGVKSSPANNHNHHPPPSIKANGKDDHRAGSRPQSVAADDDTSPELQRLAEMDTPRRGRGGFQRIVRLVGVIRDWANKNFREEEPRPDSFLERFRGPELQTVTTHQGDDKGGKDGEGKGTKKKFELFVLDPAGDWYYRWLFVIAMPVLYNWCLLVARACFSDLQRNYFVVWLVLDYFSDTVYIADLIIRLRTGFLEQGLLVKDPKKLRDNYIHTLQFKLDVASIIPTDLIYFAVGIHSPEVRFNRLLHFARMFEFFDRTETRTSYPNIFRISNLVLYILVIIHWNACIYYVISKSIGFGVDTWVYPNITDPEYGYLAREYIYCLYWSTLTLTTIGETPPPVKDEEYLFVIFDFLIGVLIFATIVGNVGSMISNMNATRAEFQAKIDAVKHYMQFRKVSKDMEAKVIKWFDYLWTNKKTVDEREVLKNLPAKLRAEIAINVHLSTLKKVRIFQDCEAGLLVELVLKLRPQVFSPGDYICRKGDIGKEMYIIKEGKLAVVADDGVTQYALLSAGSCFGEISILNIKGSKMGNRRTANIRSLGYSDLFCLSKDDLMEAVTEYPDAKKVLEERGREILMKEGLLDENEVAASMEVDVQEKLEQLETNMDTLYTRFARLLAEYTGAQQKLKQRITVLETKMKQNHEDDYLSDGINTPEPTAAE
assay details: Concentration-activation relationship of homotetrameric CNGA2 channels, inside-out patches of Xenopus oocytes
Assay type: cell-based
recorded conditions: CNGA2 channels; numeric mean values of box plots (Fig. 2a,b, Fig. 3) and text
Recall that a logarithmic scale is used here: each number is log10 of EC50 in µM.

input: Requested field: log10(EC50). Item: CC(=O)NCC(=O)NCCSc1nc2c(N)ncnc2n1C1OC2COP(=O)(O)OC2C1O (stereo not drawn) [10A, 8-(Ac)AGET-cAMP]
output: 1.54

input: Requested field: log10(EC50). Item: CC(=O)NCCSc1nc2c(=O)[nH]c(N)nc2n1C1OC2COP(=O)(O)OC2C1O (stereo not drawn)
output: -0.77

input: Requested field: log10(EC50). Item: CC(=O)NCC(=O)NCC(=O)NCCSc1nc2c(N)ncnc2n1C1OC2COP(=O)(O)OC2C1O (stereo not drawn) [11A, 8-(Ac)AGGET-cAMP]
output: 1.47

input: Requested field: log10(EC50). Item: NCCSc1nc2c(=O)[nH]c(N)nc2n1C1OC2COP(=O)(O)OC2C1O (stereo not drawn)
output: -0.08

input: Requested field: log10(EC50). Item: NCCSc1nc2c(N)ncnc2n1C1OC2COP(=O)(O)OC2C1O (stereo not drawn)
output: 2.11

input: Requested field: log10(EC50). Item: CC(=O)NCCSc1nc2c(N)ncnc2n1C1OC2COP(=O)(O)OC2C1O (stereo not drawn)
output: 1.00

---

tested target: homotetrameric CNGA2 channels (Rattus norvegicus, UniProt Q00195)
Construct: expressed in transfected cells; host or cells: Xenopus laevis oocytes injected with cRNA; inside-out patches
assay details: Concentration-activation relationship of homotetrameric CNGA2 channels, inside-out patches of Xenopus oocytes
Format: cell-based
recorded conditions: fit of the concentration-activation relationship shown in Fig. 1b, CNGA2 channels
outcome measure: EC50 (nM)
Respond numerically; units are nM and should not be typed.

input: Requested field: EC50. Item: Nc1nc2c(ncn2C2OC3COP(=O)(O)OC3C2O)c(=O)[nH]1 (stereo not shown) [1G, cGMP, reference compound]
output: 1470

---

tested target: heterotetrameric CNGA2:CNGA4:CNGB1b channels (Rattus norvegicus, UniProt A0A8I5ZN27+Q00195+Q64359)
Construct: expressed in transfected cells; host or cells: Xenopus laevis oocytes co-injected with cRNAs (2:1:1); inside-out patches
assay details: Concentration-activation relationship of heterotetrameric CNGA2:CNGA4:CNGB1b channels, inside-out patches of Xenopus oocytes
Type: cell-based
recorded conditions: heterotetrameric CNGA2:CNGA4:CNGB1b channels; mean
Could you please report measured H (Hill coefficient) for the items listed next?
I'd appreciate a reply containing only the number, no unit.

input: Requested field: H (Hill coefficient). Item: CC(=O)NCCOCCOCCSc1nc2c(=O)[nH]c(N)nc2n1C1OC2COP(=O)(O)OC2C1O (stereo not shown)
output: 1.6

input: Requested field: H (Hill coefficient). Item: CC(=O)NCCOCCOCCC(=O)NCCSc1nc2c(N)ncnc2n1C1OC2COP(=O)(O)OC2C1O (stereo not shown)
output: 2.2

input: Requested field: H (Hill coefficient). Item: CC(=O)NCCCCCCCCCCSc1nc2c(=O)[nH]c(N)nc2n1C1OC2COP(=O)(O)OC2C1O (stereo not shown)
output: 1.9

input: Requested field: H (Hill coefficient). Item: CC(=O)NCCOCCOCCC(=O)NCCSc1nc2c(=O)[nH]c(N)nc2n1C1OC2COP(=O)(O)OC2C1O (stereo not shown)
output: 2.0

---

tested target: homotetrameric HCN2 channels (Mus musculus, UniProt O88703)
Construct: expressed in transfected cells; host or cells: Xenopus laevis oocytes injected with cRNA; inside-out patches
Sequence (O88703 whole entry): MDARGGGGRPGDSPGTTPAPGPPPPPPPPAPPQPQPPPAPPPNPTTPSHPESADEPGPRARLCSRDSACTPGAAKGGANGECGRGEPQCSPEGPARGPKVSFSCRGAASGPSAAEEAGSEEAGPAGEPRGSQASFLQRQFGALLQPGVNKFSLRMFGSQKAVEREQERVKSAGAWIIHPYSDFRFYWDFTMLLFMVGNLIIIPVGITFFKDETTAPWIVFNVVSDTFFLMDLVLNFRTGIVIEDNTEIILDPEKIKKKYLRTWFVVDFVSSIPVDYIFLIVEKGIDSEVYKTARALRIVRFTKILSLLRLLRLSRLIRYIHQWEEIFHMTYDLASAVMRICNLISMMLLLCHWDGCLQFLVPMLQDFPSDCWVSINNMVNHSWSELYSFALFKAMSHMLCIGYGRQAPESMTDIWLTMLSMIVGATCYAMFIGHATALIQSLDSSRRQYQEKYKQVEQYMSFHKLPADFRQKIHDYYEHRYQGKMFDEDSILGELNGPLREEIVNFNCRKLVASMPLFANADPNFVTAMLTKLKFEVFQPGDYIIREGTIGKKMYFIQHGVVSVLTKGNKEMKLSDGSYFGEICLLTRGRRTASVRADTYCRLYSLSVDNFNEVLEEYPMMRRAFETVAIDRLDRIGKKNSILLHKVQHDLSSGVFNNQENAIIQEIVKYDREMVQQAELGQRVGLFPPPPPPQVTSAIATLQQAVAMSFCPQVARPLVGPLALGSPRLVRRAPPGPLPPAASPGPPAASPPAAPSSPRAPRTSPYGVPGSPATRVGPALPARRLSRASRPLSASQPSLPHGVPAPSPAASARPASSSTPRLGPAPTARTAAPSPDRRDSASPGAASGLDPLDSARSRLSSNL
assay details: Concentration-activation relationship of homotetrameric HCN2 channels, inside-out patches of Xenopus oocytes
Type: cell-based
recorded conditions: homotetrameric HCN2 channels; mean
outcome measure: H (Hill coefficient)
I'd appreciate a reply containing only the number, no unit.

input: For homotetrameric HCN2 channels (Mus musculus, UniProt O88703), provide H (Hill coefficient) of CC(=O)NCCOCCOCCSc1nc2c(N)ncnc2n1C1OC2COP(=O)(O)OC2C1O (centres unmarked) please.
output: 0.9

input: For homotetrameric HCN2 channels (Mus musculus, UniProt O88703), provide H (Hill coefficient) of CC(=O)NCC(=O)NCCSc1nc2c(N)ncnc2n1C1OC2COP(=O)(O)OC2C1O (centres unmarked) [10A, 8-(Ac)AGET-cAMP] please.
output: 1.5

input: For homotetrameric HCN2 channels (Mus musculus, UniProt O88703), provide H (Hill coefficient) of CC(=O)NCCCCCCSc1nc2c(N)ncnc2n1C1OC2COP(=O)(O)OC2C1O (centres unmarked) please.
output: 0.8

input: For homotetrameric HCN2 channels (Mus musculus, UniProt O88703), provide H (Hill coefficient) of CC(=O)NCCSc1nc2c(N)ncnc2n1C1OC2COP(=O)(O)OC2C1O (centres unmarked) please.
output: 1.7

input: For homotetrameric HCN2 channels (Mus musculus, UniProt O88703), provide H (Hill coefficient) of CC(=O)NCCCCCCCCCCSc1nc2c(N)ncnc2n1C1OC2COP(=O)(O)OC2C1O (centres unmarked) please.
output: 1.5
